Assay: NCI Yeast Anticancer Drug Screen. Data for the mec2-1 strain (AID 157)
Settings: S. cerevisiae mec2-1 strain, at 50.0 µM, active compounds read high
Description: Growth inhibition of yeast strains with defined genetic alterations is measured as a screen for potential anti-cancer activity. Selected strains with alterations in DNA damage repair or cell cycle control were exposed to compounds and growth inhibition was measured relative to vehicle treated controls. The strain used in this assay is mec2-1
The panel holds about 79,000 compounds, 15% with a hit somewhere; the sample as a whole holds those more often.
Measure Name: growth inhibition (%)
The reply should be a number in %, with the unit left off.

Molecule	Units	growth inhibition
O=C(Cl)/C=C/c1ccccc1	%	15.5
CN(C)C=NCCN1CCOCC1	%	15.1
CCCCCCCCCCCCS(=O)(=O)CC(=O)O	%	7.9
O=C1CN(/N=C/c2ccc(-c3cccc(C(F)(F)F)c3)o2)C(=O)N1	%	18.4
CN(CCOc1ccccc1)Cc1ccccc1	%	7.15

[ask] Can you share its growth inhibition? I mean this molecule: CC(=O)C1=C(O)C(Cc2ccccc2)NC1=O (configuration not stated)
[reply] -0.2

[ask] Can you share its growth inhibition? I mean this molecule: Cn1c(NC(=O)C(=O)NC23CC4CC(CC(C4)C2)C3)nc2ccccc21
[reply] -11.4

[ask] Can you share its growth inhibition? I mean this molecule: Fc1ccc2c(c1)Nc1ccccc1S2
[reply] -1.95

[ask] Can you share its growth inhibition? I mean this molecule: CC(C)COC(=N)c1ccccc1C1(O)CCCCC1
[reply] -10.1

[ask] Can you share its growth inhibition? I mean this molecule: N#Cc1cc2c(cc1C#N)SCCSCCCSCCS2
[reply] 5

[ask] Can you share its growth inhibition? I mean this molecule: Nc1ccc(Cl)cc1C(=O)Oc1ccccn1
[reply] -0.65

[ask] Can you share its growth inhibition? I mean this molecule: CC1OC(c2ccc(Cl)cc2)OC1C (configuration not stated)
[reply] 20.9

[ask] Can you share its growth inhibition? I mean this molecule: Cc1ccc(NC(=O)CC/C(CC(=O)C(C)(C)C)=N\Nc2ccc([N+](=O)[O-])cc2[N+](=O)[O-])cc1C
[reply] -3.55

[ask] Can you share its growth inhibition? I mean this molecule: C[C@]12CC[C@@H]3c4cc(C=O)c(OCc5ccccc5)cc4CC[C@H]3[C@@H]1CCC2OCc1ccccc1 (some centres not stated)
[reply] -8.15

[ask] Can you share its growth inhibition? I mean this molecule: S=c1o[nH]c(-c2ccccc2)c1C=Nc1ccccc1
[reply] 17.5

[ask] Can you share its growth inhibition? I mean this molecule: CC(C)(C)C(=O)C(C(c1ccccc1)N1CCOCC1)N1CCOCC1 (configuration not stated)
[reply] -5.8

[ask] Can you share its growth inhibition? I mean this molecule: O=S(=O)(O/C(=C(\OS(=O)(=O)C(F)(F)F)c1ccccc1)c1ccccc1)C(F)(F)F
[reply] -20.2

[ask] Can you share its growth inhibition? I mean this molecule: C=CC1ON(C)CCc2cc(OC)c(OC)cc21 (configuration not stated)
[reply] -1

[ask] Can you share its growth inhibition? I mean this molecule: C[C@H]1C(=O)OCN1C(=O)OCc1ccccc1
[reply] 16.4

[ask] Can you share its growth inhibition? I mean this molecule: CC(C)N1C(=O)NC(=O)C12CCN(Cc1ccccc1)CC2
[reply] -1.65

[ask] Can you share its growth inhibition? I mean this molecule: CCOC(=O)C(NC(=O)c1cccc(Cl)c1)(Nc1ccc(S(=O)(=O)Nc2cc(C)on2)cc1)C(F)(F)F (configuration not stated)
[reply] 69.3

[ask] Can you share its growth inhibition? I mean this molecule: CCOC(CNCCC(=O)OC)OCC
[reply] -59.2

* * *

assay: NCI Yeast Anticancer Drug Screen. Data for the mec2-1 strain (AID 157); details: S. cerevisiae mec2-1 strain, at 50.0 µM, active compounds read high
Compounds without any hit were thinned out: in the full panel of roughly 79,000, 15% have a hit.
Cut-off -10% on growth inhibition, inclusive. At or above means Condition met; below means Condition not met.

Molecule	Group Label
CCN(CC)CCCS/C(N)=N\S(=O)(=O)c1ccc(N)cc1	Condition not met
O=Cc1c[nH]c2ccccc2c1=O	Condition met
CCCCCCCOC(=O)C(N)c1ccccc1 (stereo unspecified)	Condition not met
COc1ccc([C@H]2CC3C(=O)N(c4ccc(OC)cc4)C(=O)C3c3[nH]c4ccccc4c32)cc1 (stereo partly specified)	Condition met

[ask] Entry Cc1nnc2c3[nH]c4ccccc4c3c(Cl)nn12 : is its growth inhibition no less than -10%?
[reply] Condition met

[ask] Entry O=C(Cc1ccc([N+](=O)[O-])c([N+](=O)[O-])c1CC(=O)C(=O)Nc1cc(Cl)ccc1Cl)C(=O)Nc1cc(Cl)ccc1Cl : is its growth inhibition no less than -10%?
[reply] Condition not met

[ask] Entry COc1ccc(OC)c(C#N)c1C#N (tested in a mixture with another compound) : is its growth inhibition no less than -10%?
[reply] Condition met

[ask] Entry O=C1CCCCC1COCC1CCCCC1=O (stereo unspecified) : is its growth inhibition no less than -10%?
[reply] Condition met

[ask] Entry CC(O)CCC(O)CCCO (stereo unspecified) : is its growth inhibition no less than -10%?
[reply] Condition not met

[ask] Entry C=C1CCc2occ(C)c2C2C1C1=C(CC(C)C1=O)C1OC12C (stereo unspecified) : is its growth inhibition no less than -10%?
[reply] Condition met

[ask] Entry CCCCCCCCCc1cc(-c2ccc(C=O)s2)sc1-c1ccc(C=O)s1 : is its growth inhibition no less than -10%?
[reply] Condition met

* * *

assay: NCI Yeast Anticancer Drug Screen. Data for the cln2 rad14 strain (AID 165);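 also: 0% = growth equal to vehicle treated cultures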; conditions: S. cerevisiae cln2 rad14 strain, at 50.0 µM, active compounds read high
About 79,000 compounds went through this panel and 15% of them were active in at least one assay; those are over-represented in the sample as a whole.
Measure Name: growth inhibition (%)
The reply should be a number in %, with the unit left off.

Below are worked cases with known answers.
Compound	Recorded Number
Cc1ccc2nccnc2c1	5.1
Cn1c(=O)c2[nH]c(Br)nc2n(C)c1=O	-4.25
CCOC(=O)Nc1cc2c(c(N)n1)N=C(c1ccc(Cl)cc1Cl)CN2	-5.1
CC1(C)CC(C(N)=O)C(C)(C)N1O (stereo unspecified)	17.9

[ask] Can you share its growth inhibition? I mean this compound: O=C1CCCC2=C1CC1=C(CCCC1=O)N2c1ccccc1
[reply] -0.75

[ask] Can you share its growth inhibition? I mean this compound: O=C1CC[C@H]2[C@@H]3N1c1ccccc1[C@@]31CCN3C/C(=C/CBr)[C@@H]2C[C@H]31
[reply] 19.4

* * *

As shown below, each of these compounds has a reported growth inhibition value.
assay: NCI Yeast Anticancer Drug Screen. Data for the rad50 strain (AID 155);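 also: 0% = growth of vehicle-only cultures of the same strain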; details: S. cerevisiae rad50 strain growth inhibition; at 50.0 µM; active compounds read high
This is part of a sample that, as a whole, favours compounds with a hit. Of some 79,000 tested, about 15% had one in any assay.
The reply should be a number in %, with the unit left off.

Compound	Units	Recorded Number
CCCCCCCCCCCCCCCCCC(=O)N/N=C/c1ccccc1OC	%	7.05

[ask] Can you share its growth inhibition? I mean this compound: CC(C)CCc1ccccc1O
[reply] -14.7

[ask] Can you share its growth inhibition? I mean this compound: OC1C(OCc2ccccc2)OC(COCc2ccccc2)C(OC2OC(COCc3ccccc3)C(OCc3ccccc3)C(OCc3ccccc3)C2OCc2ccccc2)C1OCc1ccccc1 (stereo unspecified)
[reply] -2.1

[ask] Can you share its growth inhibition? I mean this compound: CC(C)CCc1n[nH]c(=O)n1/N=C\c1ccccc1
[reply] -4.25

[ask] Can you share its growth inhibition? I mean this compound: COc1ccc(N=Nc2cc(OC)c(N=Nc3c(O)c4ccccc4[nH]c3=O)cc2OC)cc1
[reply] 18.1

[ask] Can you share its growth inhibition? I mean this compound: Cc1nnc2n1N=C(c1ccccc1)C(c1ccccc1)S2 (stereo unspecified)
[reply] 31.8

[ask] Can you share its growth inhibition? I mean this compound: CC(=O)C[n+]1ccccc1Oc1ccccc1
[reply] 5.9

[ask] Can you share its growth inhibition? I mean this compound: NC(CC(F)(F)F)C(=O)O (stereo unspecified)
[reply] 22.9

[ask] Can you share its growth inhibition? I mean this compound: CCc1occc(=O)c1O
[reply] 16.6

[ask] Can you share its growth inhibition? I mean this compound: Cc1nc(N)[nH]c(=O)c1CCCN=Cc1ccc([N+](=O)[O-])cc1
[reply] 4.3

[ask] Can you share its growth inhibition? I mean this compound: NCCCN(CCCCN(CCCN)C(=O)OCc1ccccc1)C(=O)OCc1ccccc1
[reply] 6.85

* * *

assay: NCI Yeast Anticancer Drug Screen. Data for the mec2-1 strain (AID 157); settings: S. cerevisiae mec2-1 strain, at 50.0 µM
About 79,000 compounds went through this panel and 15% of them were active in at least one assay; those are over-represented in the sample as a whole. Calls of active or inactive are those of the source. No stated cut-off is given here; in the data, active means growth inhibition above about 70%; inactive means the rest. Where a SMILES comes first, the peptide text is derived from it. [ ]: non-standard residue; d: D form. The star is where a group is joined. Cbz = O=C(OCc1ccccc1)*; Nva = CCC[CH](N)C(=O)O
Give one outcome, nothing more. List: yes (active), no (inactive)

[ask] Please let me know the test result on file for Cc1ccc(S(=O)(=O)N(c2cc(C)ccc2C)c2ccccc2N)cc1 .
[reply] no

[ask] Please let me know the test result on file for CCCCCCCCCCCCCCCC(C)O (stereo not given) .
[reply] no

[ask] Please let me know the test result on file for CCCC(NC(=O)OCc1ccccc1)C(=O)NC(CCSC)C(=O)O (stereo not given) (Cbz-[Nva]-Met-OH; configuration not given here) .
[reply] no

[ask] Please let me know the test result on file for OC(COc1cccc(C(F)(F)F)c1)CN1CCN(c2ccccc2)CC1 (stereo not given) .
[reply] yes

[ask] Please let me know the test result on file for Cn1c(=O)cc(NC2OC(CO)C(O)C(O)C2O)[nH]c1=O (stereo not given) .
[reply] no
